// reported IC50 for each item listed
tested on: Phosphorylation of ERK1/2 in MIA PaCa-2 cells; experiment: Phospho-ERK1/2 MSD assay in MIA PaCa-2 cells; type: cell-based; settings: Homo sapiens, MIA PaCa-2, 2 h, read-out: p-ERK IC50 (2 h, MiaPaCa-2; μM)
The reply should be a number in µM, with the unit left off.

# annotated cases, reported IC50 shown
- molecule: "C=CC(=O)N1C[C@H](C)N(c2nc(=O)n(-c3c(C(C)C)nc(CN4CCC4)nc3C(C)C)c3nc(-c4ccccc4F)c(Cl)cc23)C[C@H]1C"
  unit abbrev: "µM"
  value: 0.061
- molecule: "C=CC(=O)N1C[C@H](C)N(C2=NC(=O)CN(c3c(C)ccnc3C(C)C)c3nc(-c4ccccc4F)c(Cl)cc32)C[C@H]1C"
  unit abbrev: "µM"
  value: 0.035
- molecule: "C=CC(=O)N1C[C@H](C)N(c2nc(=O)n(-c3c(C)ccnc3C(C)C)c3nc(-c4ccccc4CO)c(F)cc23)C[C@H]1C (atropisomer, axis not shown; (M))"
  unit abbrev: "µM"
  value: 0.204

Next molecule, IC50 to be filled in.
Task item: Any idea what its IC50 is? The molecule is C=CC(=O)N1C[C@H](C)N(c2nc(=O)n(-c3c(C(C)C)nc(CN(C)C)nc3C(C)C)c3nc(-c4ccccc4F)c(Cl)cc23)C[C@H]1C
Reply: 0.058

====

target: GDP-bound KRAS protein (aa 1-169), containing both G12C and C118A amino acid substitutions (Homo sapiens (Human), UniProt P01116, C118A/G12C); assay: Coupled nucleotide exchange assay (SOS-mediated nucleotide exchange, AlphaScreen); assay type: biochemical; conditions: read-out: Coupled exchange IC50 (5 min; μM); 5 min compound pre-incubation
Sequence (P01116 other isoform, or with tags, fused parts or gaps G12C/C118A): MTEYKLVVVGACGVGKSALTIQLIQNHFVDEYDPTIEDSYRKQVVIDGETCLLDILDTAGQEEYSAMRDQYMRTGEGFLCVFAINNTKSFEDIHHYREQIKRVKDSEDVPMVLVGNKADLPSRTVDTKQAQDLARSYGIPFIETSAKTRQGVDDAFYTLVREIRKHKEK
reported endpoint: IC50 (µM)
The reply should be a number in µM, with the unit left off.

# annotated cases, reported IC50 shown
- compound: "C=CC(=O)N1C[C@H](C)N(c2nc(=O)n(-c3c(C)ccnc3C(C)C)c3nc(-c4ccccc4NC(=O)OC)c(Cl)cc23)C[C@H]1C (atropisomer, axis not shown; (M))"
  unit abbrev: "µM"
  value: 0.064
- compound: "C=CC(=O)N1C[C@H](C)N(c2nc(=O)n(-c3c(C)ccnc3C(C)C)c3nc(-c4c(F)cccc4NC(=O)CC)c(Cl)cc23)C[C@H]1C (atropisomer, axis not shown; (M))"
  unit abbrev: "µM"
  value: 0.053
- compound: "C=CC(=O)N1C[C@H](C)N(c2nc(=O)n(-c3c(N(C)C)ccnc3C(C)C)c3nc(-c4c(F)cccc4NC(=O)C4CC4)c(Cl)cc23)C[C@H]1C (single isomer, unassigned) [Example 122-3-2]"
  unit abbrev: "µM"
  value: 0.179
- compound: "C=CC(=O)N1CCN(c2c(C(N)=O)c(=O)n(-c3c(C)ccnc3C(C)C)c3nc(-c4ccccc4F)c(Cl)cc23)CC1"
  unit abbrev: "µM"
  value: 1.26
- compound: "C=CC(=O)N1C[C@H](C)N(c2nc(=O)n(-c3c(N(C)C)ccnc3C(C)C)c3nc(-c4ccccc4F)c(Cl)cc23)C[C@H]1C (single isomer, unassigned) [Example 55-51-1]"
  unit abbrev: "µM"
  value: 0.298
- compound: "C=CC(=O)N1C[C@H](C)N(c2nc(=O)n(-c3c(C)ccnc3C(C)C)c3nc(-c4c(F)cccc4F)c(F)cc23)C[C@H]1C (atropisomer, axis not shown; (M))"
  unit abbrev: "µM"
  value: 0.844
- compound: "C=CC(=O)N1CCN(c2nc(=O)n(-c3c(C)ccnc3C(C)C)c3nc(-c4c(O)cccc4F)c(Cl)cc23)CC1CC#N (atropisomer, axis not shown; (M))"
  unit abbrev: "µM"
  value: 0.166
- compound: "C=CC(=O)N1C[C@H](C)N(c2nc(=O)n(-c3c(N(C)C)ccnc3C(C)C)c3nc(-c4c(F)cccc4NC(=O)CC)c(Cl)cc23)C[C@H]1C (single isomer, unassigned) [Example 122-2-1]"
  unit abbrev: "µM"
  value: 17.3

Task item: Any idea what its IC50 is? The compound is C=CC(=O)N1C[C@H](C)N(c2nc(=O)n(-c3c(C(C)C)ncnc3C3CC3)c3nc(-c4ccccc4F)c(Cl)cc23)C[C@H]1C [Example 108-1]
Reply: 0.009
